System: Streptococcus pyogenes
Assay: Antibacterial activity against MLSB-resistant Streptococcus pyogenes 12-206 harboring ermA gene assessed as reduction in microbial growth
Assay type: functional
Collected log10 of MIC values appear next to each entry.
Kindly note that the scale is log10 and the underlying MIC is in µg/mL.

Query block: Which log10 of MIC value belongs to CC[C@H]1OC(=O)[C@H](C)[C@@H](OC(=O)Cc2ccccn2)[C@H](C)[C@@H](O[C@@H]2O[C@H](C)C[C@H](N(C)C)[C@H]2O)[C@](C)(OC(=O)CCNCCC#Cc2ccc3c(c2)c(=O)c(C(N)=O)cn3C2CC2)C[C@@H](C)CN(C)[C@H](C)[C@@H](O)[C@]1(C)O ?
Result block: 1.51

Query block: Which log10 of MIC value belongs to CC[C@H]1OC(=O)[C@H](C)[C@@H](OC(=O)Cc2ccccn2)[C@H](C)[C@@H](O[C@@H]2O[C@H](C)C[C@H](N(C)C)[C@H]2O)[C@](C)(OC(=O)CCNCCC#Cc2ccc3c(c2)c(=O)c(C(=O)O)cn3C2CC2)C[C@@H](C)CN(C)[C@H](C)[C@@H](O)[C@]1(C)O ?
Result block: 1.20

----------
Collected Ratio values appear next to each entry.
Tested on: Haemophilus influenzae
Experiment: Ratio of MBC to MIC against azithromycin-susceptible Haemophilus influenzae ATCC 49247
Assay type: functional
Note: the reply should be a number with no unit written.

Known results for compounds:
CC[C@H]1OC(=O)[C@H](C)[C@@H](OC(=O)Cc2cccnc2)[C@H](C)[C@@H](O[C@@H]2O[C@H](C)C[C@H](N(C)C)[C@H]2O)[C@](C)(OC(=O)CCNCCC#Cc2ccc3c(c2)c(=O)c(C(N)=O)cn3C2CC2)C[C@@H](C)CN(C)[C@H](C)[C@H]2OC(=O)O[C@@]21C: 1
CC[C@H]1OC(=O)[C@H](C)[C@@H](OC(=O)Cc2ccccn2)[C@H](C)[C@@H](O[C@@H]2O[C@H](C)C[C@H](N(C)C)[C@H]2O)[C@](C)(OC(=O)CCNCCCCc2cnc3ccccc3c2)C[C@@H](C)CN(C)[C@H](C)[C@@H](O)[C@]1(C)O: 2
CC[C@H]1OC(=O)[C@H](C)[C@@H](OC(=O)Cc2ccccn2)[C@H](C)[C@@H](O[C@@H]2O[C@H](C)C[C@H](N(C)C)[C@H]2O)[C@](C)(OC(=O)CCN2CCN(c3cc4c(cc3F)c(=O)c(C(N)=O)cn4CC)CC2)C[C@@H](C)CN(C)[C@H](C)[C@@H](O)[C@]1(C)O: 1
CC[C@H]1OC(=O)[C@H](C)[C@@H](OC(=O)Cc2ccccn2)[C@H](C)[C@@H](O[C@@H]2O[C@H](C)C[C@H](N(C)C)[C@H]2O)[C@](C)(OC(=O)CCNCCNc2cc3c(=O)c(C(=O)O)cn(C4CC4)c3cc2Cl)C[C@@H](C)CN(C)[C@H](C)[C@@H](O)[C@]1(C)O: 2
CC[C@H]1OC(=O)[C@H](C)[C@@H](OC(=O)Cc2ccccn2)[C@H](C)[C@@H](O[C@@H]2O[C@H](C)C[C@H](N(C)C)[C@H]2O)[C@](C)(OC(=O)CCN2CCN(c3cc4c(cc3F)c(=O)c(C(=O)O)cn4C3CC3)CC2)C[C@@H](C)CN(C)[C@H](C)[C@H]2OC(=O)O[C@@]21C: 2

Query block: Which Ratio value belongs to CC[C@H]1OC(=O)[C@H](C)[C@@H](OC(=O)Cc2ccccn2)[C@H](C)[C@@H](O[C@@H]2O[C@H](C)C[C@H](N(C)C)[C@H]2O)[C@](C)(OC(=O)CCNCCC#Cc2ccc3c(c2)c(=O)c(C(N)=O)cn3CC)C[C@@H](C)CN(C)[C@H](C)[C@@H](O)[C@]1(C)O ?
Result block: 1

Query block: Which Ratio value belongs to CC[C@H]1OC(=O)[C@H](C)[C@@H](OC(=O)Cc2ccccn2)[C@H](C)[C@@H](O[C@@H]2O[C@H](C)C[C@H](N(C)C)[C@H]2O)[C@](C)(OC(=O)CCNCCC#Cc2ccc3c(c2)c(=O)c(C(N)=O)cn3C2CC2)C[C@@H](C)CN(C)[C@H](C)[C@@H](O)[C@]1(C)O ?
Result block: 1

Query block: Which Ratio value belongs to CC[C@H]1OC(=O)[C@H](C)[C@@H](OC(=O)Cc2ccccn2)[C@H](C)[C@@H](O[C@@H]2O[C@H](C)C[C@H](N(C)C)[C@H]2O)[C@](C)(OC(=O)CCNCCC#Cc2ccc3[nH]ccc(=O)c3c2)C[C@@H](C)CN(C)[C@H](C)[C@@H](O)[C@]1(C)O ?
Result block: 2
